Each entry below carries its recorded EC50.
Tested on: normal human lung fibroblasts (Wi-38)
Assay: MTT cytotoxicity screening on normal human lung fibroblasts
Format: cell-based
Details: WI-38, 72 h, read-out: Wi-38 EC50

compound: COc1ccc([C@@H]2C3CC4CCCCC4N3[C@@]3(c4ccccc4-c4nc5ccccc5nc43)[C@H]2C(=O)c2nc3ccccc3[nH]2)cc1 (stereo partly shown)
endpoint_unit: µM
EC50: 0.549
--
compound: O=C(c1nc2ccccc2[nH]1)[C@H]1[C@H](c2cccs2)C2CC3CCCCC3N2[C@@]12c1ccccc1-c1nc3ccccc3nc12 (stereo partly shown)
endpoint_unit: µM
EC50: 0.164
--
compound: O=C(c1nc2ccccc2[nH]1)[C@H]1[C@H](c2ccc(F)cc2)C2CC3CCCCC3N2[C@@]12c1ccccc1-c1nc3ccccc3nc12 (stereo partly shown)
endpoint_unit: µM
EC50: 0.168
--
compound: O=C(c1nc2ccccc2[nH]1)[C@H]1[C@H](c2ccc(Br)cc2)C2CC3CCCCC3N2[C@@]12c1ccccc1-c1nc3ccccc3nc12 (stereo partly shown)
endpoint_unit: µM
EC50: 0.077
